# Tested on: HepG2
# assay_procedure: Antiproliferative against human HepG2 cells after 48 hrs by MTT assay
# Assay type: functional, cell-based
# test_settings: HepG2, 48 h
pIC50: −log10 of the molar value.
Can you tell me pIC50 for the items I'm about to list?

What the record says about COC(=O)c1cc2c(OCC(C)C)cc(N)cc2[nH]1 : pIC50 is 4.16

What the record says about COC(=O)c1cc2ccc(N(C)C)cc2[nH]1 : pIC50 is < 3.70

What the record says about CCCOc1cc(OC)cc2[nH]c(C(=O)OC)cc12 : pIC50 is < 3.70

What the record says about COC(=O)c1cc2c(OCC(C)C)cc(NC(C)=O)cc2[nH]1 : pIC50 is < 3.70

What the record says about COC(=O)c1cc2c(OCC(C)C)cccc2[nH]1 : pIC50 is < 3.70

What the record says about COC(=O)c1cc2ccc(N)cc2[nH]1 : pIC50 is < 3.70

What the record says about COC(=O)c1cc2c(OC(C)C)cccc2[nH]1 : pIC50 is < 3.70

What the record says about COC(=O)c1cc2c(OCC3CCCCC3)cc(N)cc2[nH]1 : pIC50 is 4.84

What the record says about COC(=O)c1cc2c(OC)cccc2[nH]1 : pIC50 is < 3.70

What the record says about COC(=O)c1cc2c(O)cc(N)cc2[nH]1 : pIC50 is < 3.70

What the record says about CCCOc1cccc2[nH]c(C(=O)OC)cc12 : pIC50 is < 3.70

What the record says about O=C(O)c1cc(C(=O)O)c2c(n1)C(=O)C(=O)c1cc(C(=O)O)[nH]c1-2 : pIC50 is 4.34

----------
# System: A549
# assay_procedure: Antiproliferative against human A549 cells after 48 hrs by MTT assay
# Format: functional, cell-based
# test_settings: A549, 48 h
Can you tell me IC50 for the items I'm about to list?
# output: bare number, implied unit µM

What the record says about O=C(O)c1cc(C(=O)O)c2c(n1)C(=O)C(=O)c1cc(C(=O)O)[nH]c1-2 : IC50 is 750

What the record says about CCCCOc1cccc2[nH]c(C(=O)OC)cc12 : IC50 is 87.1

What the record says about COc1cc([C@@H]2c3cc4c(cc3[C@@H](O[C@@H]3O[C@@H]5CO[C@@H](C)O[C@H]5[C@H](O)[C@H]3O)[C@H]3COC(=O)[C@H]23)OCO4)cc(OC)c1O [ETOPOSIDE] : IC50 is 242

What the record says about COC(=O)c1cc2c(OCC3CCCCC3)cc(OC)cc2[nH]1 : IC50 is 107

What the record says about COC(=O)c1cc2c(OCC(C)C)cc(N)cc2[nH]1 : IC50 is 11.4

----------
Can you tell me IC50 for the items I'm about to list?
# Tested on: HepG2
# assay_procedure: Antiproliferative against human HepG2 cells after 48 hrs by MTT assay
# Assay type: functional, cell-based
# test_settings: HepG2, 48 h

What the record says about COc1cc([C@@H]2c3cc4c(cc3[C@@H](O[C@@H]3O[C@@H]5CO[C@@H](C)O[C@H]5[C@H](O)[C@H]3O)[C@H]3COC(=O)[C@H]23)OCO4)cc(OC)c1O [ETOPOSIDE] : IC50 is 13.7 µM

What the record says about CCOc1ccc2[nH]c(C(=O)OC)cc2c1OCC1CCCCC1 : IC50 is > 200 µM

What the record says about COC(=O)c1cc2c(OCc3ccc(F)cc3)cc(N)cc2[nH]1 : IC50 is > 200 µM

What the record says about COC(=O)c1cc2c(OCc3ccccc3)cc(N)cc2[nH]1 : IC50 is > 200 µM

What the record says about CC(=O)O[C@H]1C(=O)[C@@]2(C)[C@H]([C@H](OC(=O)c3ccccc3)[C@]3(O)C[C@H](OC(=O)[C@H](O)[C@@H](NC(=O)c4ccccc4)c4ccccc4)C(C)=C1C3(C)C)[C@]1(OC(C)=O)CO[C@@H]1C[C@@H]2O : IC50 is 0.0673 µM

What the record says about CCCCOc1c(OCC)ccc2[nH]c(C(=O)OC)cc12 : IC50 is 168 µM

What the record says about COC(=O)c1cc2c(OCC3CCCCC3)cc(OC)cc2[nH]1 : IC50 is > 200 µM

What the record says about CCCOc1c(OCC)ccc2[nH]c(C(=O)OC)cc12 : IC50 is 63.5 µM

What the record says about COC(=O)c1cc2c(OCC3CCCCC3)cc(NC(C)=O)cc2[nH]1 : IC50 is > 200 µM

What the record says about CCCCOc1cccc2[nH]c(C(=O)OC)cc12 : IC50 is > 200 µM

What the record says about C=CCOc1cc(N)cc2[nH]c(C(=O)OC)cc12 : IC50 is > 200 µM

What the record says about COC(=O)c1cc2c(OC(C)C)cc(OC)cc2[nH]1 : IC50 is 3.8 µM

What the record says about CCCCOc1cc(OC)cc2[nH]c(C(=O)OC)cc12 : IC50 is > 200 µM

What the record says about COC(=O)c1cc2c(OCC3CCCCC3)cccc2[nH]1 : IC50 is > 200 µM
